Form field: IC50 (one value per entry).
system-tested: Tubulin beta chain (Bos taurus, UniProt Q6B856)
Sequence (Q6B856 whole entry): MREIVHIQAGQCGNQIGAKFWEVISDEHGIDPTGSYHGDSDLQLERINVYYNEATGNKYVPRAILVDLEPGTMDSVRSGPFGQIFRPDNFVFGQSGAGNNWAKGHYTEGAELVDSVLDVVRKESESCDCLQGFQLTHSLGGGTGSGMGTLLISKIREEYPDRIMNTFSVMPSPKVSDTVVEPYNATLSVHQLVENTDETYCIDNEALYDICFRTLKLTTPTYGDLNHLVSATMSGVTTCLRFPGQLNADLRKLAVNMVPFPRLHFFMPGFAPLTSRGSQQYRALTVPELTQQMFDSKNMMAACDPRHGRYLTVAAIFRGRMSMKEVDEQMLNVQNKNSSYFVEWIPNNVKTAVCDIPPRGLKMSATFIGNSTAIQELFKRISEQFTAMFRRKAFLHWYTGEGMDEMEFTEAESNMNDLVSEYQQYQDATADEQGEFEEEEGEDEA
assay-method-text: Inhibition of bovine tubulin polymerization
experimental-endpoint: IC50

1) COc1ccc(-c2cc(O)c3cc(C)cnc3n2)cc1 7.7 µM
2) COc1ccccc1-c1cc(O)c2cccnc2n1 > 40 µM
3) Oc1cc(-c2ccc(F)cc2)nc2ncccc12 > 40 µM
